biological target: thrombin (Homo sapiens, UniProt P00734)
Outcome Measure: IC50 (nM)
Entry rule: numbers only, all in nM.

N=C(N)c1ccc2cc(OC(=O)c3ccc(N=C(N)N)cc3)ccc2c1 [Nafamostat, nafamostat, reference compound] = 34.1
N=C(N)c1ccc2nc(-c3cccc(-c4nc5ccc(C(=N)N)cc5[nH]4)c3)[nH]c2c1 = 862

## Task Param readout = IC50; param system = thrombin (Homo sapiens, UniProt P00734); param query = N=C(N)c1ccc(OCCCCCOc2ccc(C(=N)N)cc2)cc1 [Pentamidine, pentamidine, reference compound] ; response: value
## Result 1510

## Task Param readout = IC50; param system = thrombin (Homo sapiens, UniProt P00734); param query = `N=C(N)c1ccc2nc(-c3ccc(-c4cccc(-c5ccc(-c6nc7ccc(C(=N)N)cc7[nH]6)cc5)n4)cc3)[nH]c2c1` ; response: value
## Result 929

## Task Param readout = IC50; param system = thrombin (Homo sapiens, UniProt P00734); param query = `CC(C)NC(=N)c1ccc2nc(-c3ccc(-c4cccc(-c5ccc(-c6nc7ccc(C(=N)NC(C)C)cc7[nH]6)cc5)n4)cc3)[nH]c2c1` ; response: value
## Result 2250

## Task Param readout = IC50; param system = thrombin (Homo sapiens, UniProt P00734); param query = `N=C(N)c1ccc(-c2ccc(-c3ccc(C(=N)N)cc3)o2)cc1` ; response: value
## Result 79100

## Task Param readout = IC50; param system = thrombin (Homo sapiens, UniProt P00734); param query = `N=C(N)c1ccc2nc(-c3cccc(-c4nc5ccc(C(=N)N)cc5[nH]4)n3)[nH]c2c1` ; response: value
## Result 921
